Molecular target: Glucocorticoid receptor (Homo sapiens, UniProt P04150)
Sequence (P04150 whole entry): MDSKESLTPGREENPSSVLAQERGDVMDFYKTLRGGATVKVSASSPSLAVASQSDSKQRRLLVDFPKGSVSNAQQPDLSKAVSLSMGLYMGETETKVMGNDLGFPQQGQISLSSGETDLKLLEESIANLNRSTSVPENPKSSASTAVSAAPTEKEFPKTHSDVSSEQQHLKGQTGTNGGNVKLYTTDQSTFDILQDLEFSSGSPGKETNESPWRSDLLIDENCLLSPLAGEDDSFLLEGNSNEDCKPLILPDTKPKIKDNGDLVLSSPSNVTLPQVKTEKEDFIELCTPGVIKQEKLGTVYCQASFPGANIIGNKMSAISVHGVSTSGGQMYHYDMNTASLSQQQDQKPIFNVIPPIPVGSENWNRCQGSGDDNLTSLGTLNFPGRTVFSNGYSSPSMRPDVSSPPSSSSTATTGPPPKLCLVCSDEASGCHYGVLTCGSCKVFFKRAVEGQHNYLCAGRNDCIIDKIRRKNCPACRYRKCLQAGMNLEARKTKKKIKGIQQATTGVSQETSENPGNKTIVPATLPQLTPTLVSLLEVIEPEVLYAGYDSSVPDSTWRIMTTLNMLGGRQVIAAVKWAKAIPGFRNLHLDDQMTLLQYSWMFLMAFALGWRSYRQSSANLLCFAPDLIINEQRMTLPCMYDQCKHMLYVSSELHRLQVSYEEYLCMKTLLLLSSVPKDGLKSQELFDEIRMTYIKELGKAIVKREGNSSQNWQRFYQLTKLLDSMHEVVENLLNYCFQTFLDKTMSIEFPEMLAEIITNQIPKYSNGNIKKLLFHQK
Here is a set of molecules with reported Ki for Glucocorticoid receptor (Homo sapiens, UniProt P04150), compiled from the literature.
observable: Ki (nM)

Would you mind telling me what Ki value was observed for NC(=O)C[C@H]1CNc2cc(Cl)ccc2N1C(=O)c1ccc2c(c1)NC(=O)CO2 ?
316

Would you mind telling me what Ki value was observed for COc1c(O)ccc2c1-c1ccc3c(c1/C(=C/c1ccc(C)cc1)O2)C(C)=CC(C)(C)N3 ?
1.9

Would you mind telling me what Ki value was observed for COc1c(O)ccc2c1-c1ccc3c(c1/C(=C/c1cccc(OC(F)(F)F)c1)O2)C(C)=CC(C)(C)N3 ?
4.1

Would you mind telling me what Ki value was observed for NC(=O)C[C@H]1COc2cc(F)cc(F)c2N1C(=O)c1ccc2c(c1)NC(=O)CO2 ?
1260

P. CCCCC1Oc2ccc(C)cc2-c2ccc3c(c21)C(C)=CC(C)(C)N3 (stereo unspecified)
Q. O=C1COc2ccc(C(=O)N3c4ccc(F)cc4OC[C@@H]3CCO)cc2N1
Compare reported Ki values for P and Q . Which is lower? Your answer should be the label attached to the chosen record.
P
